- Protocol Details: In vitro cytotoxicity by MTT assay, HEK 293
- Format: cell-based, human
- Experimental Parameters: human, HEK 293 cells, 0.41 μM, read-out: % cytotoxicity (100 − % cell survival) of HEK 293 cell line
Recorded Endpoint: cytotoxicity at 72 h, 0.41 µM (%)

{"columns": ["Record Smiles", "Recorded Number"],
 "data": [
  ["O=C(NS(=O)(=O)c1nnc(N=Cc2ccc(Cl)cc2)s1)c1ccccc1", 37.7],
  ["O=C(NS(=O)(=O)c1nnc(N=Cc2ccccc2O)s1)c1ccccc1", 36.4],
  ["Nc1nnc(S(=O)(=O)NC(=O)c2ccc([N+](=O)[O-])cc2)s1", 35.4],
  ["Nc1ccc(S(=O)(=O)Nc2nnc(S(=O)(=O)NC(=O)c3cccc([N+](=O)[O-])c3)s2)cc1", 37.5],
  ["CC(=O)Nc1ccc(S(=O)(=O)Nc2nnc(S(=O)(=O)NC(=O)c3ccc(Cl)cc3)s2)cc1", 20.1],
  ["COc1ccc(C=Nc2nnc(S(=O)(=O)NC(=O)c3ccccc3)s2)cc1", 34.8],
  ["CC(=O)Nc1ccc(S(=O)(=O)Nc2nnc(S(=O)(=O)NC(=O)c3ccccc3O)s2)cc1", 36.7],
  ["Nc1ccc(S(=O)(=O)Nc2nnc(S(=O)(=O)NC(=O)c3ccccc3)s2)cc1", 30.2]
]}

###

- Protocol Details: In vitro cytotoxicity by MTT assay, HEK 293
- Assay type: cell-based, human
- Experimental Parameters: human, HEK 293 cells, 11.11 μM, read-out: % cytotoxicity (100 − % cell survival) of HEK 293 cell line

{"columns": ["Compound", "Unit Annotation", "cytotoxicity at 72 h, 11.11 µM"],
 "data": [
  ["CC(=O)Nc1ccc(S(=O)(=O)Nc2nnc(S(=O)(=O)NC(=O)c3ccc(N)cc3)s2)cc1", "%", 37.8],
  ["CC(=O)Nc1ccc(S(=O)(=O)Nc2nnc(S(=O)(=O)NC(=O)c3ccccc3O)s2)cc1", "%", 39.3],
  ["Nc1nnc(S(=O)(=O)NC(=O)c2ccc(Cl)cc2)s1", "%", 47.1],
  ["Nc1ccc(S(=O)(=O)Nc2nnc(S(=O)(=O)NC(=O)c3cccc([N+](=O)[O-])c3)s2)cc1", "%", 40.6],
  ["Nc1ccc(S(=O)(=O)Nc2nnc(S(=O)(=O)NC(=O)c3ccc(Cl)cc3)s2)cc1", "%", 38.1],
  ["Nc1ccc(S(=O)(=O)Nc2nnc(S(=O)(=O)NC(=O)c3ccc([N+](=O)[O-])cc3)s2)cc1", "%", 38.1],
  ["COc1ccc(C=Nc2nnc(S(=O)(=O)NC(=O)c3ccccc3)s2)cc1", "%", 36.3],
  ["Nc1nnc(S(=O)(=O)NC(=O)c2ccccc2O)s1", "%", 47],
  ["COc1cc(C=Nc2nnc(S(=O)(=O)NC(=O)c3ccccc3)s2)ccc1O", "%", 33.5],
  ["O=C(NS(=O)(=O)c1nnc(N=Cc2ccc(Cl)cc2)s1)c1ccccc1", "%", 38.6],
  ["Nc1ccc(S(=O)(=O)Nc2nnc(S(=O)(=O)NC(=O)c3ccccc3O)s2)cc1", "%", 27.2],
  ["CC(=O)Nc1ccc(S(=O)(=O)Nc2nnc(S(=O)(=O)NC(=O)c3ccccc3N)s2)cc1", "%", 45.3],
  ["Nc1ccc(C(=O)NS(=O)(=O)c2nnc(NS(=O)(=O)c3ccc(N)cc3)s2)cc1", "%", 49.1],
  ["NS(=O)(=O)c1ccc(S(=O)(=O)Nc2cccc3c(Cl)c[nH]c23)cc1 [ISL, indisulam, reference compound]", "%", 57.8]
]}

###

- Test system: root meristem cells of Allium cepa
- Protocol Details: In vitro antimitotic activity and cytogenetic analysis, Allium cepa meristem root model
- Assay type: cell-based
- Experimental Parameters: compounds 1 mg/mL, PC (EMS) 2 × 10^−2 M
Recorded Endpoint: MNC (‰) ± SEM (micronuclei per 1,000 cells)

{"columns": ["Compound", "Result"],
 "data": [
  ["COc1ccc(C=Nc2nnc(S(=O)(=O)NC(=O)c3ccccc3)s2)cc1 [Compound 9d]", "0.51 ± 0.17 ‰"],
  ["O=C(NS(=O)(=O)c1nnc(N=Cc2ccc(Cl)cc2)s1)c1ccccc1 [Compound 9b]", "0.42 ± 0.18 ‰"],
  ["CN(C)c1ccc(C=Nc2nnc(S(=O)(=O)NC(=O)c3ccccc3)s2)cc1 [Compound 9h]", "0.31 ± 0.14 ‰"],
  ["COc1ccccc1C=Nc1nnc(S(=O)(=O)NC(=O)c2ccccc2)s1 [Compound 9c]", "0.36 ± 0.14 ‰"],
  ["O=C(NS(=O)(=O)c1nnc(N=Cc2ccccc2O)s1)c1ccccc1 [Compound 9f]", "0.39 ± 0.20 ‰"],
  ["CCOS(C)(=O)=O [PC, Ethyl methanesulphonate, reference compound]", "0.59 ± 0.09 ‰"],
  ["O=C(NS(=O)(=O)c1nnc(N=Cc2ccc(O)cc2)s1)c1ccccc1 [Compound 9e]", "0.21 ± 0.06 ‰"],
  ["O=C(NS(=O)(=O)c1nnc(N=Cc2ccccc2)s1)c1ccccc1 [Compound 9a]", "0.34 ± 0.15 ‰"],
  ["COc1cc(C=Nc2nnc(S(=O)(=O)NC(=O)c3ccccc3)s2)ccc1O [Compound 9g]", "0.48 ± 0.32 ‰"]
]}

###

Entries annotated with measured pIC50
- Protocol Details: DPPH radical scavenging activity
- Assay type: biochemical
- Experimental Parameters: Conc. ± SD; standard ascorbic acid; read-out: IC50 inhibitory concentration, DPPH radical
pIC50: −log10 of the molar value.

{"columns": ["Compound", "pIC50"],
 "data": [
  ["COc1ccc(C=Nc2nnc(S(=O)(=O)NC(=O)c3ccccc3)s2)cc1 [Compound 9d]", 4.20],
  ["O=C1O[C@H]([C@@H](O)CO)C(O)=C1O [ascorbic acid, reference compound]", 3.73],
  ["O=C(NS(=O)(=O)c1nnc(N=Cc2ccccc2)s1)c1ccccc1 [Compound 9a]", 3.87],
  ["O=C(NS(=O)(=O)c1nnc(N=Cc2ccc(O)cc2)s1)c1ccccc1 [Compound 9e]", 3.97],
  ["O=C(NS(=O)(=O)c1nnc(N=Cc2ccccc2O)s1)c1ccccc1 [Compound 9f]", 4.09],
  ["O=C(NS(=O)(=O)c1nnc(N=Cc2ccc(Cl)cc2)s1)c1ccccc1 [Compound 9b]", 4.05],
  ["COc1ccccc1C=Nc1nnc(S(=O)(=O)NC(=O)c2ccccc2)s1 [Compound 9c]", 4.38]
]}

###

- Protocol Details: In vitro cytotoxicity by MTT assay, HEK 293
- Format: cell-based, human
- Experimental Parameters: human, HEK 293 cells, 100 μM, read-out: % cytotoxicity (100 − % cell survival) of HEK 293 cell line
Recorded Endpoint: cytotoxicity at 72 h, 100 µM

{"columns": ["Record Smiles", "Recorded Endpoint", "Result"],
 "data": [
  ["Nc1ccc(S(=O)(=O)Nc2nnc(S(=O)(=O)NC(=O)c3ccc([N+](=O)[O-])cc3)s2)cc1", "cytotoxicity at 72 h, 100 µM", "39.8%"],
  ["CC(=O)Nc1ccc(S(=O)(=O)Nc2nnc(S(=O)(=O)NC(=O)c3ccccc3O)s2)cc1", "cytotoxicity at 72 h, 100 µM", "41.3%"],
  ["Nc1nnc(S(=O)(=O)NC(=O)c2ccc([N+](=O)[O-])cc2)s1", "cytotoxicity at 72 h, 100 µM", "40.2%"],
  ["Nc1ccc(S(=O)(=O)Nc2nnc(S(=O)(=O)NC(=O)c3ccccc3N)s2)cc1", "cytotoxicity at 72 h, 100 µM", "51.9%"],
  ["CC(=O)Nc1ccc(S(=O)(=O)Nc2nnc(S(=O)(=O)NC(=O)c3ccccc3)s2)cc1", "cytotoxicity at 72 h, 100 µM", "35.4%"]
]}

###

Entries annotated with measured melting point
Recorded Endpoint: melting point

{"columns": ["Record Smiles", "Result"],
 "data": [
  ["COc1ccc(C=Nc2nnc(S(=O)(=O)NC(=O)c3ccccc3)s2)cc1", "215 to 217 °C"],
  ["COc1cc(C=Nc2nnc(S(=O)(=O)NC(=O)c3ccccc3)s2)ccc1O", "252 to 254 °C"],
  ["O=C(NS(=O)(=O)c1nnc(N=Cc2ccc(O)cc2)s1)c1ccccc1", "178 to 180 °C"],
  ["O=C(NS(=O)(=O)c1nnc(N=Cc2ccccc2)s1)c1ccccc1", "185 to 187 °C"],
  ["O=C(NS(=O)(=O)c1nnc(N=Cc2ccccc2O)s1)c1ccccc1", "220 to 222 °C"],
  ["O=C(NS(=O)(=O)c1nnc(N=Cc2ccc(Cl)cc2)s1)c1ccccc1", "212 to 214 °C"],
  ["O=C(NS(=O)(=O)c1nnc(N=Cc2ccco2)s1)c1ccccc1", "261 to 263 °C"],
  ["CN(C)c1ccc(C=Nc2nnc(S(=O)(=O)NC(=O)c3ccccc3)s2)cc1", "236 to 238 °C"]
]}
